Experiment: in vitro
Conditions: human, hela-y cells
Measured Parameter: MCC at 48 h

Compound: CCN1C(=O)[C@@H]2[C@H](N(CC)C1=O)C(C)(C)C2(C)C (relative stereo)
Test Value: 250 µg/mL
--
Compound: CN1C(=O)[C@@H]2[C@H](N(C)C1=O)C(C)(C)C2(C)C (relative stereo)
Test Value: 250 µg/mL
--
Compound: CCN1C(=O)N(CC)C2C(C)(C)C(C)(C)C2(F)C1=O (stereo not shown)
Test Value: 250 µg/mL
--
Compound: CCN1C(=O)NC(=O)C2(F)C1C(C)(C)C2(C)C (stereo not shown)
Test Value: 250 µg/mL
--
Compound: CC1(C)C2N(Cc3ccccc3)C(=O)N(Cc3ccccc3)C(=O)C2(F)C1(C)C (stereo not shown)
Test Value: 15.6 µg/mL
--
Compound: CC1(C)O[C@@H]2[C@H](O1)[C@@H](CO)O[C@H]2N1C(=O)NC(=O)C2C1C(C)(C)C2(C)C (stereo partly shown)
Test Value: > 1000 µg/mL
--
Compound: CN1C(=O)NC2C(C)(C)C(C)(C)C2(F)C1=O (stereo not shown)
Test Value: 125 µg/mL

====

Test system: Newcastle disease virus (NDV) Miyadera strain
Test: microbe, parasite or virus in culture
Type: cell-based
Conditions: figures in brackets; HeLa-Y cell, NDV; 2880 min
Measured Parameter: Quotient of minimum denaturation concentration divided by IC50, Virus No. 2

Molecule: CCN1C(=O)NC(=O)C2(F)C1C(C)(C)C2(C)C (stereo not drawn)
Test Value: < 1.00
--
Molecule: CC1(C)C2N(Cc3ccccc3)C(=O)N(Cc3ccccc3)C(=O)C2(F)C1(C)C (stereo not drawn)
Test Value: < 0.62
--
Molecule: CN1C(=O)NC2C(C)(C)C(C)(C)C2(F)C1=O (stereo not drawn)
Test Value: < 1.00
--
Molecule: CCN1C(=O)N(CC)C2C(C)(C)C(C)(C)C2(F)C1=O (stereo not drawn)
Test Value: < 1.00
--
Molecule: CCN1C(=O)[C@@H]2[C@H](N(CC)C1=O)C(C)(C)C2(C)C (relative stereo)
Test Value: < 1.0
--
Molecule: CN1C(=O)[C@@H]2[C@H](N(C)C1=O)C(C)(C)C2(C)C (relative stereo)
Test Value: < 1.0

====

Assay: in vitro
Conditions: dog, mdck
Catalogue of MCC at 48 h readings, one per entry.

Molecule: CN1C(=O)NC2C(C)(C)C(C)(C)C2(F)C1=O (stereo not shown)
MCC at 48 h: 250 µg/mL

Molecule: CCN1C(=O)N(CC)C2C(C)(C)C(C)(C)C2(F)C1=O (stereo not shown)
MCC at 48 h: 1000 µg/mL

Molecule: CC1(C)C2N(Cc3ccccc3)C(=O)N(Cc3ccccc3)C(=O)C2(F)C1(C)C (stereo not shown)
MCC at 48 h: 250 µg/mL

Molecule: CN1C(=O)[C@@H]2[C@H](N(C)C1=O)C(C)(C)C2(C)C (relative stereo)
MCC at 48 h: 1000 µg/mL

====

Assay: in vitro
Conditions: monkey, vero cells

Compound: CN1C(=O)NC2C(C)(C)C(C)(C)C2(F)C1=O (centres unmarked)
Measurement Qualifier: =
MCC at 48 h, µg/mL: 125
//
Compound: CC1(C)O[C@@H]2[C@H](O1)[C@@H](CO)O[C@H]2N1C(=O)NC(=O)C2C1C(C)(C)C2(C)C (some centres unmarked)
Measurement Qualifier: >
MCC at 48 h, µg/mL: 1000
//
Compound: CCN1C(=O)NC(=O)C2(F)C1C(C)(C)C2(C)C (centres unmarked)
Measurement Qualifier: =
MCC at 48 h, µg/mL: 500
//
Compound: CCN1C(=O)[C@@H]2[C@H](N(CC)C1=O)C(C)(C)C2(C)C (relative stereo)
Measurement Qualifier: =
MCC at 48 h, µg/mL: 500
//
Compound: CN1C(=O)[C@@H]2[C@H](N(C)C1=O)C(C)(C)C2(C)C (relative stereo)
Measurement Qualifier: =
MCC at 48 h, µg/mL: 500
//
Compound: Nc1nc2c(ncn2COCCO)c(=O)[nH]1 [Acyclovir, reference compound]
Measurement Qualifier: >
MCC at 48 h, µg/mL: 1000
//
Compound: CC1(C)C2N(Cc3ccccc3)C(=O)N(Cc3ccccc3)C(=O)C2(F)C1(C)C (centres unmarked)
Measurement Qualifier: =
MCC at 48 h, µg/mL: 62.5
//
Compound: CCN1C(=O)N(CC)C2C(C)(C)C(C)(C)C2(F)C1=O (centres unmarked)
Measurement Qualifier: =
MCC at 48 h, µg/mL: 500
